Experiment: chemical genetic growth profiling, strain panel (AID 1159580);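 note: tested at 20 µM; growth read once vehicle control cultures reached saturation at 30 °C; 1 = growth at the plate median or of vehicle wells; lower values mean less growth of the strain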
Settings: S. cerevisiae deletion strains, growth OD, locus YPL256C, strain CLN2, active compounds read low
Screen size: about 5,500 compounds; about 2,000 (36%) were called active. About 18% were inconclusive and are not listed. This is one part of the list.
Each record here notes measured normalized growth.
Response field accepts a number only; no unit should be typed.

Please review the entries below; each comes with its answer.
COc1ccc(NNC(=O)c2sc3ccccc3c2Cl)cc1; 0.441
COc1ccc2c(c1)OCc1c-2oc2cc(OC)ccc12; 0.95
O=C(Oc1ccc(C(F)(F)F)cc1[N+](=O)[O-])c1cccc(Cl)c1; 0.266
COC1=CC(=O)C[C@@H](C)[C@]12Oc1c(Cl)c(OC)cc(OC)c1C2=O; 0.985
CC(=O)O[C@@H]1C[C@@]2(C)C(CC[C@@H]2C(C)=O)C2CCC3=CC(=O)CC[C@]3(C)C21 (stereo partly specified); 0.973
C=C(C)[C@@H]1[C@H]2OC(=O)[C@@H]1[C@]1(O)C[C@H]3O[C@]34C(=O)O[C@H]2[C@]14C; 1.05

Prompt line: Report normalized growth, nothing else, for this compound: C[N+](C)(C)CCCCCCCCCC[N+](C)(C)C
Response line: 1.12

Prompt line: Report normalized growth, nothing else, for this compound: CS(=O)(=O)c1ccc(C2=C(c3ccccc3)C(=O)OC2)cc1
Response line: 1.06

Prompt line: Report normalized growth, nothing else, for this compound: CC(=O)[C@H]1CCC2C3CCC4=CC(=O)CC[C@]4(C)C3CC[C@@]21C (stereo partly specified)
Response line: 0.981

Prompt line: Report normalized growth, nothing else, for this compound: Cc1ccccc1C(=O)Oc1ccc(C(F)(F)F)cc1[N+](=O)[O-]
Response line: 0.784

Prompt line: Report normalized growth, nothing else, for this compound: CC(=O)OC(C)(C)[C@@H]1Cc2cc3ccc(=O)oc3cc2O1
Response line: 0.962

Prompt line: Report normalized growth, nothing else, for this compound: COc1ccc2c3c1O[C@H]1C[C@@H](O)C=C[C@@]31CCN(C)C2
Response line: 1.01

Prompt line: Report normalized growth, nothing else, for this compound: CC1=C(C(C)O)C2=NC1C=c1[nH]c(c(C)c1C(C)O)=Cc1[nH]c(c(CCC(=O)O)c1C)C=c1[nH]c(c(C)c1CCC(=O)O)=C2 (stereo unspecified)
Response line: 1.07

Prompt line: Report normalized growth, nothing else, for this compound: CCCCNc1cc(C(=O)O)cc(S(N)(=O)=O)c1Oc1ccccc1
Response line: 1.06

Prompt line: Report normalized growth, nothing else, for this compound: C[N+](C)(C)CCCCCC[N+](C)(C)C
Response line: 1.05

Prompt line: Report normalized growth, nothing else, for this compound: CC(C)(O)[C@@H]1[C@H]2OC(=O)[C@@H]1[C@]1(O)C[C@H]3O[C@]34C(=O)O[C@H]2[C@]14C
Response line: 1.02

Prompt line: Report normalized growth, nothing else, for this compound: CC1(C)OC(=O)NC1=O
Response line: 1.08

Prompt line: Report normalized growth, nothing else, for this compound: CCC(=O)O[C@H]1CCC2C3CCC4=CC(=O)CC[C@]4(C)C3CC[C@@]21C (stereo partly specified)
Response line: 0.982

Prompt line: Report normalized growth, nothing else, for this compound: CN1CCc2cc3c(cc2[C@H]1C1OC(=O)c2c1ccc1c2OCO1)OCO3 (stereo partly specified)
Response line: 0.968

Prompt line: Report normalized growth, nothing else, for this compound: NCCSSCCN
Response line: 1.07

Prompt line: Report normalized growth, nothing else, for this compound: CC[C@H](/C=C/C(C)C1CCC2C3CCC4=CC(=O)CC[C@]4(C)C3CC[C@]12C)C(C)C (stereo partly specified)
Response line: 1.03

----------
Each record here notes measured normalized growth.
Experiment: chemical genetic growth profiling, strain panel (AID 1159580)
Details: S. cerevisiae deletion strains, growth OD, locus YFR010W, strain ubp6, active compounds read low
The campaign covered roughly 5,500 compounds. About 2,000 (36%) were called active. Not shown: some 18% with an inconclusive outcome. Some of the results follow.
Response field accepts a number only; no unit should be typed.

NCC1CCC(C(=O)O)CC1 (configuration not stated); 0.99

Prompt line: Report normalized growth, nothing else, for this molecule: CC(=O)OC(C)(C)[C@@H]1Cc2cc3ccc(=O)oc3cc2O1
Response line: 0.969

Prompt line: Report normalized growth, nothing else, for this molecule: CN1CCCN=C1COC(=O)C(O)(c1ccccc1)C1CCCCC1 (configuration not stated)
Response line: 1.01

Prompt line: Report normalized growth, nothing else, for this molecule: NC(=O)c1ccc[n+]([C@@H]2O[C@H](COP(=O)([O-])OP(=O)(O)OC[C@H]3O[C@@H](n4cnc5c(N)ncnc54)[C@H](O)[C@@H]3O)[C@@H](O)[C@H]2O)c1
Response line: 1.05

Prompt line: Report normalized growth, nothing else, for this molecule: COc1cc(NC(C)CCCN)c2ncccc2c1 (configuration not stated)
Response line: 1.01

Prompt line: Report normalized growth, nothing else, for this molecule: COc1ccc2cc([C@H](C)C(=O)O)ccc2c1
Response line: 0.959

Prompt line: Report normalized growth, nothing else, for this molecule: CCOC(=O)C(Cc1ccc(O)cc1)NC(C)=O (configuration not stated)
Response line: 0.987

----------
Experiment: chemical genetic growth profiling, strain panel (AID 1159580)
Settings: S. cerevisiae deletion strains, growth OD, locus YHR079C, strain IRE1, active compounds read low
Screen size: about 5,500 compounds; about 2,000 (36%) were called active. Another 18% or so got no clear call; they are omitted. The list shows a part of the results.
// assign Fulfilled if normalized growth falls strictly below 1, else Not fulfilled (ties count as Not fulfilled)

CC(C)OC(=O)C(C)(C)Oc1ccc(C(=O)c2ccc(Cl)cc2)cc1; Fulfilled
CCOC(=O)CCC(=O)O[C@H]1[C@H](O[C@@H]2[C@@H](C)[C@H](O[C@H]3C[C@@](C)(OC)[C@@H](O)[C@H](C)O3)[C@@H](C)C(=O)O[C@H](CC)[C@@](C)(O)[C@H](O)[C@@H](C)C(=O)[C@H](C)C[C@@]2(C)O)O[C@H](C)C[C@@H]1N(C)C; Not fulfilled
CCOC(=O)C(C)(C)Oc1ccc(Cl)cc1; Fulfilled
CC[C@H]1OC(=O)[C@H](C)[C@@H](O[C@H]2C[C@@](C)(OC)[C@@H](O)[C@H](C)O2)[C@H](C)[C@@H](O[C@@H]2O[C@H](C)C[C@H](N(C)C)[C@H]2O)[C@](C)(O)C[C@@H](C)CN(C)[C@H](C)[C@@H](O)[C@]1(C)O; Fulfilled
CC(N)C(=O)OC(C)(C)Cc1ccc(Cl)cc1 (stereo not drawn); Not fulfilled

Now look at this entry.
Prompt line: In plain terms, does CN(C)C(=S)SSC(=S)N(C)C come in under 1 for normalized growth?
Response line: Fulfilled

----------
Test: chemical genetic growth profiling, strain panel (AID 1159580);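 note: tested at 20 µM; growth read once vehicle control cultures reached saturation at 30 °C; 1 = growth at the plate median or of vehicle wells; lower values mean less growth of the strain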
Details: S. cerevisiae deletion strains, growth OD, locus YDR502C, strain sam2, active compounds read low
Screen size: about 5,500 compounds; about 2,000 (36%) were called active. About 18% were inconclusive and are not listed. Some of the results follow.
// assign t if normalized growth falls strictly below 1, else f (ties count as f)

Prompt line: In plain terms, does CCOC(=O)C1(O)Oc2cc(OC)cc(OC)c2C(=O)C1c1ccccc1 (centres undefined) come in under 1 for normalized growth?
Response line: t

----------
Assay: chemical genetic growth profiling, strain panel (AID 1159580);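 note: tested at 20 µM; growth read once vehicle control cultures reached saturation at 30 °C; 1 = growth at the plate median or of vehicle wells; lower values mean less growth of the strain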
Conditions: S. cerevisiae deletion strains, growth OD, locus YGR135W, strain pre9
Out of some 5,500 compounds screened, about 2,000 (36%) were called active. Not shown: some 18% with an inconclusive outcome. Rule as the data show it: active = normalized growth mostly below about 0.91 (no sharp cut-off); inconclusive = no clear call, values can overlap the other calls; inactive = mostly above about 0.92. The list shows a part of the results.
Outcome field: choose from active, inactive

COc1cc2c(cc1OC)Cc1cc(OC)c(OC)cc1Cc1cc(OC)c(OC)cc1C2; inactive

Prompt line: Could you please tell me the result logged for CC(C(=O)O)c1ccc(-c2ccccc2)c(F)c1 (configuration not stated) in this assay?
Response line: inactive

Prompt line: Could you please tell me the result logged for CC1(C)C(C=C(Cl)Cl)C1C(=O)OC(C#N)c1cccc(Oc2ccccc2)c1 (configuration not stated) in this assay?
Response line: inactive

Prompt line: Could you please tell me the result logged for COc1ccc2c(C)cc(=O)oc2c1 in this assay?
Response line: inactive

Prompt line: Could you please tell me the result logged for COc1ccc2c(c1)OCc1c-2oc2cc(OC)ccc12 in this assay?
Response line: inactive

Prompt line: Could you please tell me the result logged for CC(C(=O)O)c1cccc(C(=O)c2ccccc2)c1 (configuration not stated) in this assay?
Response line: inactive

Prompt line: Could you please tell me the result logged for CC(=O)OCC(=O)[C@H]1CCC2C3CCC4=CC(=O)CC[C@]4(C)C3CC[C@@]21C (some centres not stated) in this assay?
Response line: active

----------
Assay: chemical genetic growth profiling, strain panel (AID 1159580);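 note: tested at 20 µM; growth read once vehicle control cultures reached saturation at 30 °C; 1 = growth at the plate median or of vehicle wells; lower values mean less growth of the strain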
Conditions: S. cerevisiae deletion strains, growth OD, locus YIL125W, strain kgd1
Among all 5,500 compounds or so, about 2,000 (36%) were called active. Not shown: some 18% with an inconclusive outcome. Cut-off read from the data, not from the text of the source: active = normalized growth mostly below about 0.91 (no sharp cut-off); inconclusive = no clear call, values can overlap the other calls; inactive = mostly above about 0.92. Some of the results follow.
Outcome field: choose from active, inactive

Prompt line: Could you please tell me the result logged for CCOC(=O)C(Cc1ccc(O)cc1)NC(C)=O (configuration not stated) in this assay?
Response line: inactive

Prompt line: Could you please tell me the result logged for CC(N)CCCC(C)(C)O (configuration not stated) in this assay?
Response line: inactive

Prompt line: Could you please tell me the result logged for CCN(CC)CCCC(C)Nc1c2ccc(Cl)cc2nc2ccc(OC)cc12 (configuration not stated) in this assay?
Response line: active

Prompt line: Could you please tell me the result logged for O=C1C=CC(=C(c2ccc(O)cc2)c2ccc(O)cc2)C=C1 in this assay?
Response line: inactive

Prompt line: Could you please tell me the result logged for CC(Oc1ccccc1)C(=O)N[C@@H]1C(=O)N2[C@@H]1SC(C)(C)[C@@H]2C(=O)O (some centres not stated) in this assay?
Response line: inactive

Prompt line: Could you please tell me the result logged for S=c1nc[nH]c2nc[nH]c12 in this assay?
Response line: inactive
